These data points were gathered from patent US20250295799A1.

For each record, write down the corresponding pKd.
# Measured On: T1, recombinant cynomolgus GPC3 (glypican-3) (cynomolgus monkey, UniProt A0A2K5VK50 24-558)
# T1 construct: also called cynoGPC3
# Method Description: SPR (Biacore T200), antibody captured by anti-Fc, GPC3 injected, single-cycle kinetics, 1:1 fit; average
# pKd is unitless: minus log10 of the molar concentration; print number only

QUERY: Consider the binder v40203, H18L6_LC_G34D mAb (antibody, human IgG1, kappa, V domains shown) VH: QVQLVQSGAEVKKPGSSVKVSCKASGYTFTDYEMHWVKQAPGHGLEWIGAIDPETGDTAYNQKFKGKATLTADTSTSTAYMELSSLRSEDTAVYYCTRYFSFAYWGQGTLVTVSS VL: EIVLTQSPATLSLSPGERATISCRSSQSLRHSNDNTYLQWYQQKPGQAPRLLIYKVSNRFSGVPARFSGSGSGTDFTLTISSLEPEDFAVYFCYQSKHVPYTFGGGTKVEIKR and give its measured pKd.
RESULT: 7.94

QUERY: Bench note: what pKd did v40216, H18L6_LC_N33R mAb (antibody, human IgG1, kappa, V domains shown, no number given for this variant) VH: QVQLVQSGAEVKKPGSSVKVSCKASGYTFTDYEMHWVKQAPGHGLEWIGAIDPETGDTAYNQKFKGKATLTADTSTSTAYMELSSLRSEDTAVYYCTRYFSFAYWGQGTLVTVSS VL: EIVLTQSPATLSLSPGERATISCRSSQSLRHSRGNTYLQWYQQKPGQAPRLLIYKVSNRFSGVPARFSGSGSGTDFTLTISSLEPEDFAVYFCYQSKHVPYTFGGGTKVEIKR show?
RESULT: 7.95

QUERY: Given the entry v40205, H18L6_LC_G34H mAb (antibody, human IgG1, kappa, V domains shown, no number given for this variant) VH: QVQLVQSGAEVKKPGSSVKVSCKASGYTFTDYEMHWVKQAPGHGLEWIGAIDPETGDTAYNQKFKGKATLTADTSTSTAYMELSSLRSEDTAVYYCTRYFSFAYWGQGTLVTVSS VL: EIVLTQSPATLSLSPGERATISCRSSQSLRHSNHNTYLQWYQQKPGQAPRLLIYKVSNRFSGVPARFSGSGSGTDFTLTISSLEPEDFAVYFCYQSKHVPYTFGGGTKVEIKR , report its measured pKd.
RESULT: 8.06
